Cited source for all entries: patent US20030095937A1

tested on: BNX nu/nu mice; assay: Hair growth scoring in nude mice; type: in vivo; settings: male nude mice, i.p. 3 times a week, at least 35 days, hair score scale 1-10
Reported Peak Score, Mouse 2 values for a set of molecules
Parameter measured: Peak Score, Mouse 2

C=C1/C(=C\C=C2/CCC[C@]3(C)[C@@H]([C@H](C)/C=C/C=C/C(O)(CC)CC)CC[C@@H]23)C[C@@H](O)C[C@@H]1O: 8 (Hair 50-75% of area)
CC(C)(O)CCCC(CCCC(C)(C)O)[C@H]1CCC2/C(=C/C=C3C[C@@H](O)C[C@H](O)C3)CCC[C@@]21C (stereo partly shown): 8 (Hair 50-75% of area)
C[C@H](C/C=C/C(O)(C(F)(F)F)C(F)(F)F)C1=CCC2/C(=C/C=C3C[C@@H](O)C[C@H](O)C3)CCC[C@]12C (stereo partly shown): 4
C=C1/C(=C\C=C2/CCC[C@]3(C)[C@@H]([C@H](C)CCCC(C)(C)O)CC[C@@H]23)C[C@@H](O)C[C@@H]1O [1,25(OH)2D3, reference compound]: 5 (Hair 1-10% of area)
C[C@]12CCC/C(=C\C=C3C[C@@H](O)C[C@H](O)C3)C1CC[C@@H]2C1(C/C=C/C(O)(C(F)(F)F)C(F)(F)F)CC1 (stereo partly shown): 8 (Hair 50-75% of area)
C[C@H](CCC(=O)C(C)(C)O)C1=CCC2/C(=C/C=C3C[C@@H](O)C[C@H](O)C3)CCC[C@]12C (stereo partly shown): 8 (Hair 50-75% of area)
C=C1/C(=C\C=C2/CCC[C@]3(C)[C@@H]([C@@H](C)OCCCC(O)(CC)CC)CC[C@@H]23)C[C@@H](O)C[C@@H]1O: 6 (Hair 10-25% of area)

---

assay: Calcemic properties: highest dose that would not cause hypercalcemia; type: in vivo, mouse; details: identified in previous experiments
Parameter measured: NON-HYPERCALCEMIC DOSE (μg/mouse)

C[C@H](C/C=C/C(O)(C(F)(F)F)C(F)(F)F)C1=CCC2/C(=C/C=C3C[C@@H](O)C[C@H](O)C3)CCC[C@]12C (stereo partly drawn): 0.00125
CC(C)(O)CCCC(CCCC(C)(C)O)[C@H]1CCC2/C(=C/C=C3C[C@@H](O)C[C@H](O)C3)CCC[C@@]21C (stereo partly drawn): 0.01
C=C1/C(=C\C=C2/CCC[C@]3(C)[C@@H]([C@@H](C)OCCCC(O)(CC)CC)CC[C@@H]23)C[C@@H](O)C[C@@H]1O: 0.0125
C[C@H](CCC(=O)C(C)(C)O)C1=CCC2/C(=C/C=C3C[C@@H](O)C[C@H](O)C3)CCC[C@]12C (stereo partly drawn): 6
C=C1/C(=C\C=C2/CCC[C@]3(C)[C@@H]([C@H](C)CCCC(C)(C)O)CC[C@@H]23)C[C@@H](O)C[C@@H]1O [1,25(OH)2D3, reference compound]: 0.0626
